These entries and their values trace back to PubChem BioAssay (NCI).

growth by entry:
- Test system: COLO 205 colon
- TEST METHOD NOTES: NCI-60 one-dose screen, 48 h (100 = growth as untreated, 0 = no growth, -100 = all killed)
- ASSAY CONDITIONS: 10 µM
The panel holds about 83,000 compounds, 20% with a hit somewhere; the sample as a whole holds those more often.

{"COMPOUND": "Cc1ccc(C(=O)NC2c3ccccc3Oc3ccccc32)cc1", "growth [%]": 73.6}
{"COMPOUND": "OCC1OC(OC2C(O)C(CO)OC2(CO)OC2OC(CO)C(O)C(O)C2O)C(O)C(O)C1O (stereo unspecified)", "growth [%]": 117}
{"COMPOUND": "CN(C)CCN(C)CC(C)(C)C(=O)/C=C/c1ccc(Cl)cc1", "growth [%]": -86.5}
{"COMPOUND": "CCCCCCCCCCCCCCCCC1CC(=O)OC1=O (stereo unspecified)", "growth [%]": 111}
{"COMPOUND": "C[C@]12CC[C@@H]3c4ccc(OCC(=O)O)cc4CC[C@H]3[C@@H]1CCC2=O", "growth [%]": 105}
{"COMPOUND": "Clc1ccc(-c2n[nH]c3c2Cc2ccccc2-3)cc1Cl", "growth [%]": 115}
{"COMPOUND": "CNS(=O)(=O)c1ccc(Cl)c(Cl)c1", "growth [%]": 114}
{"COMPOUND": "OCc1cccc2ccccc12", "growth [%]": 114}
{"COMPOUND": "CC1CC(O)C2C3(C)CCCC2(COC3=O)C12CCC1(CCOC1=O)O2 (stereo unspecified)", "growth [%]": 118}
{"COMPOUND": "C=C1CC/C=C(\\C)C(=O)C[C@@H]2[C@@H]1CC2(C)C", "growth [%]": 110}
{"COMPOUND": "O=C1C=CC2=C3c4cc(O)c(O)cc4CC3(O)COC2=C1O (stereo unspecified)", "growth [%]": 98.6}
{"COMPOUND": "Cc1ccc(CCCC(=O)O)c(C)c1", "growth [%]": 102}
{"COMPOUND": "O=C(CCl)N1CCN(C/C=C/c2ccccc2)CC1", "growth [%]": 108}
{"COMPOUND": "CC(=O)OCC1CCCO1 (stereo unspecified)", "growth [%]": 102}
{"COMPOUND": "N#CC1(Nc2ccc3c4c(cccc24)CC3)CCCCC1", "growth [%]": 94.7}
{"COMPOUND": "Nc1ccc(N=Nc2ccc(O)cc2)c(N)n1", "growth [%]": 109}
{"COMPOUND": "CCCCCC(C)(CC(=O)O)CC(=O)O", "growth [%]": 116}
{"COMPOUND": "NC(N)=Nc1cc2ccccc2c2ccccc12", "growth [%]": 44.9}
{"COMPOUND": "CCCNC(=O)c1ccc(S(N)(=O)=O)cc1", "growth [%]": 132}
{"COMPOUND": "O=S(=O)(O)c1cc(O)c2c(N=Cc3ccccc3O)c(S(=O)(=O)O)ccc2c1", "growth [%]": 119}
{"COMPOUND": "OC(c1ccccn1)C(O)c1ccccn1 (stereo unspecified)", "growth [%]": 105}
{"COMPOUND": "CCOC(=O)C1=C(Nc2ccc(Br)cc2)C(=O)N(CC)C1", "growth [%]": 108}
{"COMPOUND": "COc1cc(CCN=Cc2ccccc2O)c([N+](=O)[O-])cc1OC", "growth [%]": 110}
{"COMPOUND": "CN1C(=O)CN2CCc3ccccc3C2c2cc(Cl)ccc21 (stereo unspecified)", "growth [%]": 110}
{"COMPOUND": "CCNc1nc2c(cnn2C)c(=O)[nH]1", "growth [%]": 96.5}
{"COMPOUND": "Cc1ccc(C)n1-c1ccsc1C(=O)NNC(=O)C(Cl)Cl", "growth [%]": 120}
{"COMPOUND": "Cc1ccc(N)cc1[N+](=O)[O-]", "growth [%]": 110}
{"COMPOUND": "CC(=O)CC(=O)N(C)C", "growth [%]": 115}
{"COMPOUND": "CS(=O)CC1=NC(=N)N=C1CS(C)=O (stereo unspecified)", "growth [%]": 117}
{"COMPOUND": "C/C(=C\\c1cc(Cl)ccc1OCC(=O)O)[N+](=O)[O-]", "growth [%]": 115}
{"COMPOUND": "Cc1ccc(C(=O)c2ccccc2)c(C)c1", "growth [%]": 109}
{"COMPOUND": "O=C(Cc1ccc(OCc2ccccc2)cc1)NCc1ccc2c(c1)OCO2", "growth [%]": 85.5}
{"COMPOUND": "CCN(CC)c1ccc2nc3ccc(=[N+](CC)CC)cc-3oc2c1", "growth [%]": -69.9}
{"COMPOUND": "O=C(O)COCC(=O)O", "growth [%]": 108}
{"COMPOUND": "CC(=O)Cc1ccc(-c2ccccc2)cc1", "growth [%]": 115}
{"COMPOUND": "c1c(-c2cc(C3CC3)[nH]n2)n[nH]c1C1CC1", "growth [%]": 102}
{"COMPOUND": "CC(=O)/C(Cc1ccccc1)=N/O", "growth [%]": 97.9}
{"COMPOUND": "CC(=O)c1ccc(N=C(C#N)C2=C(O)c3ccccc3C2=O)cc1", "growth [%]": 111}
{"COMPOUND": "CN(C)C(=O)Oc1cccc([N+](C)(C)C)c1", "growth [%]": 109}
{"COMPOUND": "COc1cc2c(cc1O)CC[C@@H]1C2CC[C@@]2(C)C1CC[C@@H]2O (stereo partly specified)", "growth [%]": 82.5}
{"COMPOUND": "CCCCCCCCCCC1CO1 (stereo unspecified)", "growth [%]": 105}

----------
- System: SF-268 CNS
- TEST METHOD NOTES: NCI-60 one-dose screen, 48 h (100 = growth as untreated, 0 = no growth, -100 = all killed)
- ASSAY CONDITIONS: 10 µM
This is part of a sample that, as a whole, favours compounds with a hit. Of some 83,000 tested, about 20% had one in any assay.
PARAMETER: growth (%)

{"COMPOUND": "O=C1C=CC2=C3c4cc(O)c(O)cc4CC3(O)COC2=C1O (stereo unspecified)", "OBSERVED MEASUREMENT": 107}
{"COMPOUND": "NNc1ccccc1C(=O)O", "OBSERVED MEASUREMENT": 100}
{"COMPOUND": "CCNc1nc2c(cnn2C)c(=O)[nH]1", "OBSERVED MEASUREMENT": 104}
{"COMPOUND": "CC(O)COc1ccc(-c2ccccc2)cc1 (stereo unspecified)", "OBSERVED MEASUREMENT": 99.4}
{"COMPOUND": "N#CCc1ccc([N+](=O)[O-])cc1", "OBSERVED MEASUREMENT": 106}
{"COMPOUND": "CC1CCC2C(C)(C)C3CC12CC1OC13C (stereo unspecified)", "OBSERVED MEASUREMENT": 110}
{"COMPOUND": "COCCOC(=O)c1ccc(C(C)C)cc1", "OBSERVED MEASUREMENT": 99.1}
{"COMPOUND": "CCN(CC)CCNc1ccc(CO)c2sc3ccccc3c(=O)c12", "OBSERVED MEASUREMENT": 40.5}
{"COMPOUND": "COC(=O)Nc1nc2ccc(C(=O)c3ccc(F)cc3)cc2[nH]1", "OBSERVED MEASUREMENT": 22.6}
{"COMPOUND": "Nc1ccc(CC(=O)O)c(N)c1", "OBSERVED MEASUREMENT": 94}
{"COMPOUND": "O=C(O)CSCSCC(=O)O", "OBSERVED MEASUREMENT": 110}

----------
- System: UO-31 renal
- TEST METHOD NOTES: NCI-60 one-dose screen, 48 h (100 = growth as untreated, 0 = no growth, -100 = all killed)
- ASSAY CONDITIONS: 10 µM
This is part of a sample that, as a whole, favours compounds with a hit. Of some 83,000 tested, about 20% had one in any assay.
Below is a list of entries, each paired with its recorded growth value.
PARAMETER: growth (%)

{"MOLECULE": "Cc1ncc(C#N)c(N)n1", "OBSERVED MEASUREMENT": 85.7}
{"MOLECULE": "CCOC(=O)C1=C(Nc2ccc(Br)cc2)C(=O)N(CC)C1", "OBSERVED MEASUREMENT": 84.1}
{"MOLECULE": "Cc1nc2c(ccc3ccccc32)s1", "OBSERVED MEASUREMENT": 96.9}
{"MOLECULE": "CC(=O)/C(Cc1ccccc1)=N/O", "OBSERVED MEASUREMENT": 96.2}
{"MOLECULE": "CCCC(C)OCC(=O)O (stereo not given)", "OBSERVED MEASUREMENT": 86.6}
{"MOLECULE": "S=C1CCCCCN1", "OBSERVED MEASUREMENT": 82.5}
{"MOLECULE": "Cc1cc(C)c(N)c(S(=O)(=O)O)c1", "OBSERVED MEASUREMENT": 76.2}
{"MOLECULE": "Cc1cc(N)c(S(=O)(=O)O)c(N)c1", "OBSERVED MEASUREMENT": 79.1}
{"MOLECULE": "O=C(O)CCCc1ccccc1", "OBSERVED MEASUREMENT": 94.9}
{"MOLECULE": "O=C(Nc1cccc(NC(=O)Nc2cc(C(F)(F)F)ccc2Cl)c1)Nc1cc(C(F)(F)F)ccc1Cl", "OBSERVED MEASUREMENT": 0.156}
